test: Unbound fraction in microsomal incubation mixture (Rapid Equilibrium Dialysis); assay type: in vitro ADME; conditions: rat, liver microsomes 0.5 mg protein/mL, 4 h incubation

{"chemical.string": "COc1cc(OC)cc(N2CCN(C(=O)Nc3nc4cc(F)ccc4nc3OC)CC2)c1", "fraction unbound at 4 h, 1 µM": 0.518}

----------
assay: In vivo pharmacokinetic study, oral administration to rats; conditions: Sprague-Dawley, rat, plasma; fasted male SD rats, oral 0.5 mg/kg, 1 h

{"compound": "COc1cc(OC)cc(N2CCN(C(=O)Nc3nc4cc(F)ccc4nc3OC)CC2)c1 [supinoxin]", "unit.of.measurement": "µg/mL", "concentration at 1 h": 0.0996}

----------
assay: In vivo pharmacokinetic study, intravenous administration to rats; conditions: male, Sprague-Dawley, rat, plasma; rats, intravenous, 5 mg/kg; read-out: Vss

{"chemical.string": "COc1cc(OC)cc(N2CCN(C(=O)Nc3nc4cc(F)ccc4nc3OC)CC2)c1", "unit.of.measurement": "L/kg", "Vd": 3.5}

----------
biological target: CYP2D6 (Homo sapiens); construct: purchased Thermo Fisher Scientific; assay: CYP inhibition, Vivid CYP450 screening kit; assay type: in vitro ADME; settings: recombinant human CYP2D6 (P450 Baculosomes), probe Vivid substrate; human recombinant CYP2D6, 10 µM; read-out: inhibition compared to the vehicle control
Sequence (P10635 whole entry): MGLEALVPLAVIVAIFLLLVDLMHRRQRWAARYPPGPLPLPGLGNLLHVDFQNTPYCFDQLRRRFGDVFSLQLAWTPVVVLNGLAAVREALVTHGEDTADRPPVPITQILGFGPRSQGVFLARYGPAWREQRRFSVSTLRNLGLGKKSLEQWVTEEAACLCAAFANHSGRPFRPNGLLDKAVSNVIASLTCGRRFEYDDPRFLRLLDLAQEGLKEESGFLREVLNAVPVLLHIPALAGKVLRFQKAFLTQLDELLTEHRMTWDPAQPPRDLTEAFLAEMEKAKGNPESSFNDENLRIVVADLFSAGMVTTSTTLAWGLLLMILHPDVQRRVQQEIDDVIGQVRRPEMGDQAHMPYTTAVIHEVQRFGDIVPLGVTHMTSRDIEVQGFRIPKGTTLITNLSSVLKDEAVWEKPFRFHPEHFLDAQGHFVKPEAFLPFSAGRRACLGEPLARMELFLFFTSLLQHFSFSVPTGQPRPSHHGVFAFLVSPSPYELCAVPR
endpoint: inhibition at 30 min, 10 µM

{"chemical.string": "COc1cc(OC)cc(N2CCN(C(=O)Nc3nc4cc(F)ccc4nc3OC)CC2)c1", "target": "CYP2D6 (Homo sapiens)", "endpoint": "inhibition at 30 min, 10 µM", "observed.result": "< 0.01%"}

----------
test: In vivo pharmacokinetic study, intravenous administration to rats; conditions: Sprague-Dawley, rat, plasma; fasted male SD rats, intravenous 5 mg/kg, 3 h
endpoint: concentration at 3 h (ng/mL)

{"chemical.string": "COc1cc(OC)cc(N2CCN(C(=O)Nc3nc4cc(F)ccc4nc3OC)CC2)c1", "observed.result": 600}

----------
assay: In vivo pharmacokinetic study, intravenous administration to rats; settings: Sprague-Dawley, rat, plasma; fasted male SD rats, intravenous 0.5 mg/kg, 1 h
endpoint: concentration at 1 h (ng/mL)

{"molecule": "COc1cc(OC)cc(N2CCN(C(=O)Nc3nc4cc(F)ccc4nc3OC)CC2)c1 [supinoxin]", "endpoint": "concentration at 1 h", "observed.result": 140}

----------
test: In vivo pharmacokinetic study, intravenous administration to rats; details: male, Sprague-Dawley, rat, plasma; rats, intravenous, range over doses 0.5–5 mg/kg; read-out: systemic clearance

{"chemical.string": "COc1cc(OC)cc(N2CCN(C(=O)Nc3nc4cc(F)ccc4nc3OC)CC2)c1", "clearance": "11.5 to 14.4 mL/min/kg"}

----------
assay: Tissue distribution (tissue-to-plasma partition) in rats; assay type: in vivo; conditions: male, Sprague-Dawley, rat; Gut; rats, oral administration (5 mg/kg); read-out: Kp (tissue to plasma AUC ratio)

{"compound": "COc1cc(OC)cc(N2CCN(C(=O)Nc3nc4cc(F)ccc4nc3OC)CC2)c1 [supinoxin]", "Kp": 4.96}

----------
assay: In vivo pharmacokinetic study, intravenous administration to rats; settings: Sprague-Dawley, rat, plasma; fasted male SD rats, intravenous 0.5 mg/kg, 10 h
endpoint: concentration at 10 h (ng/mL)

{"chemical.string": "COc1cc(OC)cc(N2CCN(C(=O)Nc3nc4cc(F)ccc4nc3OC)CC2)c1", "endpoint": "concentration at 10 h", "unit.of.measurement": "ng/mL", "observed.result": 8.2}

----------
assay: Transport of supinoxin in Caco-2 cells (bidirectional permeability); type: in vitro ADME; details: human; Caco-2 cell monolayers

{"chemical.string": "COc1cc(OC)cc(N2CCN(C(=O)Nc3nc4cc(F)ccc4nc3OC)CC2)c1", "efflux ratio at 120 min, 1 µM": 1.24}

----------
test: Plasma protein binding by Rapid Equilibrium Dialysis; assay type: in vitro ADME; conditions: rat plasma, 1 µg/mL, 24 h incubation
endpoint: fraction unbound at 24 h, 1 µg/mL

{"chemical.string": "COc1cc(OC)cc(N2CCN(C(=O)Nc3nc4cc(F)ccc4nc3OC)CC2)c1", "observed.result": 0.0354}

----------
test: Metabolic stability in rat liver microsomes; assay type: in vitro ADME; details: pH 7.4; rat liver microsomes, NADPH, 1 µM; read-out: intrinsic clearance (converted)
endpoint: CLint scaled at 1 µM

{"chemical.string": "COc1cc(OC)cc(N2CCN(C(=O)Nc3nc4cc(F)ccc4nc3OC)CC2)c1", "observed.result": "233 mL/min/kg"}

----------
test: In vivo pharmacokinetic study, intravenous administration to rats; settings: male, Sprague Dawley, rat, plasma; rats, intravenous, 5 mg/kg; read-out: T1/2 (converted)
endpoint: half-life (min)

{"chemical.string": "COc1cc(OC)cc(N2CCN(C(=O)Nc3nc4cc(F)ccc4nc3OC)CC2)c1", "unit.of.measurement": "min", "observed.result": 168}

----------
Target: UniProtKB P10635
Experiment: CYP inhibition, Vivid CYP450 screening kit
Settings: human recombinant CYP2D6
Experimental: CYP inhibition by supinoxin was studied using Vivid® CYP450 screening kits (Thermo Fisher Scientific, San Jose, CA, USA) following the manufacturer’s instructions. […] After a 30-min incubation, fluorescence was detected in end-point mode using a Varioscan™ Flash multimode reader (Thermo Fisher Scientific, San Jose, CA, USA). Background fluorescence was obtained from wells not containing CYP isozymes and was withdrawn before further reaction. […]
pIC50: −log10 of the molar value.

{"chemical.string": "COc1cc(OC)cc(N2CCN(C(=O)Nc3nc4cc(F)ccc4nc3OC)CC2)c1", "target": "UniProtKB P10635", "pIC50": "< 5.00"}

----------
assay: In vivo pharmacokinetic study, intravenous administration to rats; details: Sprague-Dawley, rat, plasma; fasted male SD rats, intravenous 0.5 mg/kg, 0.25 h

{"chemical.string": "COc1cc(OC)cc(N2CCN(C(=O)Nc3nc4cc(F)ccc4nc3OC)CC2)c1", "concentration at 0.25 h / ng/mL": 255}

----------
test: Tissue distribution (tissue-to-plasma partition) in rats; type: in vivo; settings: male, Sprague-Dawley, rat, kidney; Kidneys; rats, oral administration (5 mg/kg), mean; read-out: AUC0–24h

{"chemical.string": "COc1cc(OC)cc(N2CCN(C(=O)Nc3nc4cc(F)ccc4nc3OC)CC2)c1", "AUC(0-t) (ng·h/mL)": 11100}

----------
experiment: In vivo pharmacokinetic study, oral administration to rats; settings: Sprague-Dawley, rat, plasma; fasted male SD rats, oral 0.5 mg/kg, 0.5 h
endpoint: concentration at 0.5 h (ng/mL)

{"molecule": "COc1cc(OC)cc(N2CCN(C(=O)Nc3nc4cc(F)ccc4nc3OC)CC2)c1 [supinoxin]", "observed.result": 99.6}

----------
assay: In vivo pharmacokinetic study, oral administration to rats; settings: male, Sprague-Dawley, rat, plasma; rats, oral, 5 mg/kg

{"chemical.string": "COc1cc(OC)cc(N2CCN(C(=O)Nc3nc4cc(F)ccc4nc3OC)CC2)c1", "Tmax, min": 45}

----------
experiment: Tissue distribution (tissue-to-plasma partition) in rats; assay type: in vivo; details: male, Sprague-Dawley, rat; Plasma; rats, oral administration (5 mg/kg), mean; read-out: AUC0–24h
endpoint: AUC(0-t) (ng·h/mL)

{"chemical.string": "COc1cc(OC)cc(N2CCN(C(=O)Nc3nc4cc(F)ccc4nc3OC)CC2)c1", "endpoint": "AUC(0-t)", "observed.result": 5110}

----------
assay: In vivo pharmacokinetic study, intravenous administration to rats; conditions: Sprague-Dawley, rat, plasma; fasted male SD rats, intravenous 5 mg/kg, 24 h; BQL treated as 0

{"chemical.string": "COc1cc(OC)cc(N2CCN(C(=O)Nc3nc4cc(F)ccc4nc3OC)CC2)c1", "unit.of.measurement": "ng/mL", "concentration at 24 h": 5.8}

----------
assay: In vivo pharmacokinetic study, oral administration to rats; details: male, Sprague-Dawley, rat, plasma; rats, oral, 0.5 mg/kg

{"chemical.string": "COc1cc(OC)cc(N2CCN(C(=O)Nc3nc4cc(F)ccc4nc3OC)CC2)c1", "unit.of.measurement": "ng/mL", "Cmax": 108}

----------
test: Tissue distribution (tissue-to-plasma partition) in rats; type: in vivo; conditions: male, Sprague-Dawley, rat; Testes; rats, oral administration (5 mg/kg); read-out: Kp (tissue to plasma AUC ratio)

{"molecule": "COc1cc(OC)cc(N2CCN(C(=O)Nc3nc4cc(F)ccc4nc3OC)CC2)c1 [supinoxin]", "Kp": 1.05}

----------
assay: In vivo pharmacokinetic study, oral administration to rats; settings: Sprague-Dawley, rat, plasma; fasted male SD rats, oral 5 mg/kg, 0.25 h
endpoint: concentration at 0.25 h (ng/mL)

{"chemical.string": "COc1cc(OC)cc(N2CCN(C(=O)Nc3nc4cc(F)ccc4nc3OC)CC2)c1", "observed.result": 474}
